molecular target: T1, monovalent hVISTA-ECD (human VISTA extracellular domain with His tail) (human, UniProt Q9H7M9 33-193); experiment: SPR, pH 6.0
T1 construct: analyte flowed over captured antibody; also called huVISTA-His
T1 sequence (Q9H7M9 other isoform, or with tags, fused parts or gaps limits assumed): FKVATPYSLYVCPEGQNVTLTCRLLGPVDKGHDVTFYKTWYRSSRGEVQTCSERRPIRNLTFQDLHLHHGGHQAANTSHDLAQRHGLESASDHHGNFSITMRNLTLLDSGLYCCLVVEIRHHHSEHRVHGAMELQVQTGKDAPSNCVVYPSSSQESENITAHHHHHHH
Readout Label: kon (M⁻¹ s⁻¹)
Give bare numbers, in M⁻¹ s⁻¹.

Consider the reported kon for these binders:
{"columns": ["Binder", "kon (M⁻¹ s⁻¹)"],
 "data": [
  ["P1-063001 (41F11_LC_Mutant: V29D/A64G/R91T) (antibody, V domains shown, also called P1-063001-5; P1-063001-6) VH: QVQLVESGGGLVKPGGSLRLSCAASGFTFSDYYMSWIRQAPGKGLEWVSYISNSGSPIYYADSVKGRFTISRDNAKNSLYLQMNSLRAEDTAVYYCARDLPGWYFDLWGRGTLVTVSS VL: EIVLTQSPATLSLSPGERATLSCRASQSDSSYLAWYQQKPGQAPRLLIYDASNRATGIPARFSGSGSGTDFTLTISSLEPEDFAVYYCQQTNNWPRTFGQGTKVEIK", "1.3e+06"],
  ["P1-063125 (41F11_HC_Mutant: T28P/Y50W/S55E/Y100E) (antibody, V domains shown, Kabat positions; also called P1-063125-5) VH: QVQLVESGGGLVKPGGSLRLSCAASGFPFSDYYMSWIRQAPGKGLEWVSWISNSGEPIYYADSVKGRFTISRDNAKNSLYLQMNSLRAEDTAVYYCARDLPGWEFDLWGRGTLVTVSS VL: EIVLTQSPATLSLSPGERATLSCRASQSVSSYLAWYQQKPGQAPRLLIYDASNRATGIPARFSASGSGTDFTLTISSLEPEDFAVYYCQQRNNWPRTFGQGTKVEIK", "3.1e+06"],
  ["P1-063153 (41F11_HC_mutant: D31E/Y50W/S55E/Y100E) (antibody, V domains shown, Kabat positions; also called P1-063153-5) VH: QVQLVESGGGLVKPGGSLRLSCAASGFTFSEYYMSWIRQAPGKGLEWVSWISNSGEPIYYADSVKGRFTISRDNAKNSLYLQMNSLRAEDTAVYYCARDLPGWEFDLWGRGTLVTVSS VL: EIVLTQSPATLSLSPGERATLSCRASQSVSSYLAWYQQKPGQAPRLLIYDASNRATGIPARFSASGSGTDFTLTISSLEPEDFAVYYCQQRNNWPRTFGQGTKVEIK", "3.6e+06"]
]}

Now for another entry.
q: Find the recorded kon belonging to P1-064490 (41F11_VH_F27EY50EL96E) (antibody, V domains shown, Kabat positions; also called P1-064490-1; P1-064490-2) VH: QVQLVESGGGLVKPGGSLRLSCAASGETFSDYYMSWIRQAPGKGLEWVSEISNSGSPIYYADSVKGRFTISRDNAKNSLYLQMNSLRAEDTAVYYCARDEPGWYFDLWGRGTLVTVSS VL: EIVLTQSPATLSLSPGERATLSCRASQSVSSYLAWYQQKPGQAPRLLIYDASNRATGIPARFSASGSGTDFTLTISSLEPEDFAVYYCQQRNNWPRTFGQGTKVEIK and report it.
a: 600000
